- targetOrSystem: SIK3 (Homo sapiens, UniProt Q9Y2K2)
- Construct: purchased SignalChem S12-11G-100
- Sequence (Q9Y2K2 whole entry): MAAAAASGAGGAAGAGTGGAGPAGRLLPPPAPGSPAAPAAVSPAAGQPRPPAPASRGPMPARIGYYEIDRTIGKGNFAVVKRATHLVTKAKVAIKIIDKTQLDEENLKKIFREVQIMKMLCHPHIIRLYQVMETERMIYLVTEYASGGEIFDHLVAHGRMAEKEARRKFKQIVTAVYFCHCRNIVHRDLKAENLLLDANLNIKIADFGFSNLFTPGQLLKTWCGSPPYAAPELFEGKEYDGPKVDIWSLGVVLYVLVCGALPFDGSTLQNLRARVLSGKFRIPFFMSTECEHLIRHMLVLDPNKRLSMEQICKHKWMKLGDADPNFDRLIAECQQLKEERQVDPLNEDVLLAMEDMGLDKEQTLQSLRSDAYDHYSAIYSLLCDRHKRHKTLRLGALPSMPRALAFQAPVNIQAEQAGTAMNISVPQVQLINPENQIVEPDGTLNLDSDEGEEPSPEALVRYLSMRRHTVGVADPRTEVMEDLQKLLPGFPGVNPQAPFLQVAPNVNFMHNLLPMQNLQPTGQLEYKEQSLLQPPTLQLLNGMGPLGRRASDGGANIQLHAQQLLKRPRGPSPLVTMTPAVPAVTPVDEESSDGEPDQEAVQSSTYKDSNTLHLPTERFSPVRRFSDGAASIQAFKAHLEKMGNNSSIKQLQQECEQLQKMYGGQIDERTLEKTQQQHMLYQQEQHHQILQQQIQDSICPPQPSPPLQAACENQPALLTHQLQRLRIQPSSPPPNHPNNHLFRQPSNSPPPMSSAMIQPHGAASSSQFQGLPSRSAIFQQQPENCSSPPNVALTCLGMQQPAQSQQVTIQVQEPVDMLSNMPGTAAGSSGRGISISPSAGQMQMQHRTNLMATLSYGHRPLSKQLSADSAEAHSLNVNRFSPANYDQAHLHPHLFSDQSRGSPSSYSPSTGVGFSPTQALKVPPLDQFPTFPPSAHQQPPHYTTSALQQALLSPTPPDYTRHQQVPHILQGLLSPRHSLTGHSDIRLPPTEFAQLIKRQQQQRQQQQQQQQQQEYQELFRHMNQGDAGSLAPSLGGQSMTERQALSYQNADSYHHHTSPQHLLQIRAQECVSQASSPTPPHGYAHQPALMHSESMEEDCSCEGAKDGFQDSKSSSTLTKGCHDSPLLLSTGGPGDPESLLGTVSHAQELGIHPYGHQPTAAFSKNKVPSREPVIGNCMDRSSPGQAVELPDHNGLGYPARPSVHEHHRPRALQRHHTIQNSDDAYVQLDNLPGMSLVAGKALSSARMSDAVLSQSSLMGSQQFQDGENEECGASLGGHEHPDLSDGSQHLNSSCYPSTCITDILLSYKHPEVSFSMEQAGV
- measurementNotes: biochemical
Listed next: entries and their corresponding IC50.

As a guide, the following entries are already answered.
structure	IC50
CCNC(=O)c1c(OC)cc(-c2cnc3cc(-c4cnn(C5CCN(C(=O)OC(C)(C)C)CC5)c4)ccn23)cc1OC(F)F	0.01 to 10 nM
COc1cc(-n2cnc3cc(-c4cnn(C)c4)ccc32)cc(OC)c1C(=O)N1CC(CO)C1	100 to 500 nM
COc1cc(-n2cnc3cc(-c4nnc(C)o4)ccc32)cc(OC)c1C(=O)NCC(F)(F)F	100 to 500 nM
COc1cc(-c2cnc3cc(-c4cnn(C)c4)ccn23)cc(OC)c1C(=O)N1CC(C)(C)C1	0.01 to 10 nM
COc1cc(-n2cnc3cc(-c4cnn(C)c4)ccc32)cc(OC)c1C(=O)Nc1ccon1	10 to 100 nM
COc1cc(-n2cnc3cc(-c4cnn(C)c4)ccc32)cc(OC)c1C(=O)NC(C)C	10 to 100 nM
COc1cc(-n2cnc3cc(-c4cnn(C)c4)ccc32)cc(OC)c1C(=O)NCc1ccccn1	100 to 500 nM

Next compound, please.
## Input Which IC50 value belongs to CCn1cc(-c2cnc3c(c2)ncn3-c2cc(OC)c(C(=O)NCC(F)(F)F)c(OC)c2)cn1 ?
## Output 10 to 100 nM

----------
Here the recorded IC50 is given for each entry.
- targetOrSystem: SIK1 (Homo sapiens)
- Construct: purchased Carna Biosciences 02-131
- Sequence (P57059 whole entry): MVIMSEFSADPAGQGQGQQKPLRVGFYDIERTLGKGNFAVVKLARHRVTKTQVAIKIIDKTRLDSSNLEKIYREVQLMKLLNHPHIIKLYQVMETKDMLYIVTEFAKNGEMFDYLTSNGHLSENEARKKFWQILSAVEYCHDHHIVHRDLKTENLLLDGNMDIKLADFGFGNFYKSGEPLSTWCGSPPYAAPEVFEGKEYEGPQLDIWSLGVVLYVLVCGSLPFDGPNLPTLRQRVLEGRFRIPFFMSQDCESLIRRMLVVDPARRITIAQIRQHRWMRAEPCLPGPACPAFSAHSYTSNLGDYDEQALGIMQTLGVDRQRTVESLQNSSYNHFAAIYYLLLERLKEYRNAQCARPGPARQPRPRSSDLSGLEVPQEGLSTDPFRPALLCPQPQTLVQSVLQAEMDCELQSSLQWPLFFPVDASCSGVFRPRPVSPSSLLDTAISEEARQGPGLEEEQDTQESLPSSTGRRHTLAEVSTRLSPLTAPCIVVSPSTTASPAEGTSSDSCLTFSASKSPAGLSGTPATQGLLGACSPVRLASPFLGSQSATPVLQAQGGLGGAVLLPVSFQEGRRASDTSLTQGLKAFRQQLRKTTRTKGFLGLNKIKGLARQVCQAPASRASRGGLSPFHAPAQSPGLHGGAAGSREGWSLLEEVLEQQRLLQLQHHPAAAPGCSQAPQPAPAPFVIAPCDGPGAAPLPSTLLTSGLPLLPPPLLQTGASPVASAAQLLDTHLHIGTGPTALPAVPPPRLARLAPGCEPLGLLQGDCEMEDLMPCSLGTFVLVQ
- measurementNotes: biochemical
- conditions: ADP-Glo SIK kinase assay

Some entries whose results are on file:
compound	targetOrSystem	IC50
CCOC(=O)Cn1cc(-c2ccn3c(-c4cc(OC)c(C(=O)NCC(F)(F)F)c(OC)c4)cnc3c2)cn1 [compound 230]	SIK1 (Homo sapiens)	0.01 to 10 nM
CCOC(=O)C(C)(C)n1cc(-c2ccn3c(-c4cc(OC)c(C(=O)NCC(F)(F)F)c(OC)c4)cnc3c2)cn1 [Cpd 295]	SIK1 (Homo sapiens)	0.01 to 10 nM
COc1cc(-c2cnc3cc(-c4cn(C)cn4)ccn23)cc(OC)c1C(=O)N[C@@H](C)C(F)(F)F [compound 216]	SIK1 (Homo sapiens)	100 to 500 nM
COc1cc(-n2cnc3cc(-c4ccnc(N5CCN(C)CC5)c4)ccc32)cc(OC)c1C(=O)NCC(F)(F)F [compound 120]	SIK1 (Homo sapiens)	10 to 100 nM
CCOC(=O)C(C(C)C)n1cc(-c2ccn3c(-c4cc(OC)c(C(=O)NCC(F)(F)F)c(OC)c4)cnc3c2)cn1 (stereo not shown) [Cpd 296]	SIK1 (Homo sapiens)	0.01 to 10 nM

## Input Quick one: IC50 for CCN(CC)CCOC(=O)C(C)(C)n1cc(-c2ccn3c(-c4cc(OC)c(C(=O)NCC(F)(F)F)c(OC)c4)cnc3c2)cn1 [Cpd 305] ?
## Output 0.01 to 10 nM

## Input Consider the compound COc1cc(-c2cnc3cc(-c4cn[nH]c4)ccn23)cc(OC(F)F)c1C(=O)NC1CC1 [compound 307] and give its measured IC50.
## Output 0.01 to 10 nM

----------
- targetOrSystem: SIK3 (Homo sapiens)
- Construct: purchased SignalChem S12-11G-100
- measurementNotes: biochemical
Property: IC50; scope: individual compounds

compound	targetOrSystem	metric	testValue
COc1cc(-c2cnc3cc(-c4cnn(C)c4)ccn23)cc(OC)c1C(=O)NC(C)C	SIK3 (Homo sapiens)	IC50	10 to 100 nM
COc1cc(-c2cnc3cc(-c4cnn(CC(=O)OC5CCOC5)c4)ccn23)cc(OC)c1C(=O)NCC(F)(F)F (stereo not shown)	SIK3 (Homo sapiens)	IC50	0.01 to 10 nM
COc1cc(-n2cnc3cc(-c4cnn(C5CC5)c4)ccc32)cc(OC)c1C(=O)NCC(F)(F)F	SIK3 (Homo sapiens)	IC50	0.01 to 10 nM
COc1cc(-n2cnc3cc(-c4cnn(C)c4)ccc32)cc(OC)c1C(=O)N1CCC1CO (stereo not shown)	SIK3 (Homo sapiens)	IC50	> 500 nM
COc1cc(-n2cnc3cc(-c4cnn(C)c4)ccc32)cc(OC)c1C(=O)NC1CCC[C@H]1O (stereo in doubt)	SIK3 (Homo sapiens)	IC50	10 to 100 nM
COc1cc(-n2cnc3cc(-c4cnn(C)c4)ccc32)cc(OC)c1C(=O)N[C@@H]1C[C@@H]1C(F)F	SIK3 (Homo sapiens)	IC50	0.01 to 10 nM
COc1cc(-n2cnc3cc(-c4cnn(C)c4)ccc32)cc(OC)c1C(=O)NCCC#N	SIK3 (Homo sapiens)	IC50	10 to 100 nM
COc1cc(-n2cnc3cc(-c4nccn4C)ccc32)cc(OC)c1C(=O)NCC(F)(F)F	SIK3 (Homo sapiens)	IC50	100 to 500 nM

## Input Suppose we examine the compound COc1cc(-n2cnc3cc(-c4cnn(C)c4)ccc32)cc(OC)c1C(=O)N1CC(N(C)C)C1 ; what IC50 value has been reported?
## Output > 500 nM

## Input Tell me the measured IC50 of COc1cc(-n2cnc3cc(-c4cnn(C)c4)ccc32)cc(OC)c1C(=O)NCCCO , please.
## Output 10 to 100 nM

## Input What value of IC50 has been reported for the following compound? COc1cc(-n2cnc3cc(-c4cnn(CC(C)C)c4)ccc32)cc(OC)c1C(=O)NCC(F)(F)F
## Output 0.01 to 10 nM

## Input I'd like to know its IC50. The compound in question is COc1cc(-n2cnc3cc(-n4nc(C)cc4C)ccc32)cc(OC)c1C(=O)NCC(F)(F)F
## Output > 500 nM

## Input Please report the recorded IC50 for COc1cc(-c2cnc3cc(-c4cnn(C)c4)ccn23)cc(NCCO)c1C(=O)NCC(F)(F)F .
## Output 0.01 to 10 nM

## Input Which IC50 reading was recorded for the compound COc1cc(-n2cnc3cc(-c4cnn(C)c4)ccc32)cc(OC)c1C(=O)NCC(C)C ?
## Output 10 to 100 nM

## Input Endpoint output: IC50 of COc1cc(-n2cnc3cc(-c4ccnc(N5CCN(C)CC5)c4)ccc32)cc(OC)c1C(=O)NCC(F)(F)F . Value?
## Output 0.01 to 10 nM

## Input Field request: IC50 | item: CCn1cc(-c2ccc3c(c2)ncn3-c2cc(OC)c(C(=O)NCCF)c(OC)c2)cn1
## Output 0.01 to 10 nM

----------
IC50: recorded values
- targetOrSystem: SIK1 (Homo sapiens)
- Construct: purchased Carna Biosciences 02-131
- measurementNotes: biochemical
- conditions: 33P radioactive SIK kinase assay, AMARA peptide, 10 μM ATP; read-out: SIK1 IC50

Solved cases (5 shown):
compound	IC50
CCn1cc(-c2ccc3c(c2)ncn3-c2cc(OC)c(C(=O)N(C)CC#N)c(OC)c2)cn1	100 to 500 nM
CNc1cc(-c2cnc3cc(-c4cnn(C)c4)ccn23)cc(OC)c1C(=O)NCC(F)(F)F	0.01 to 10 nM
COc1cc(-n2cnc3cc(-c4cnn(C)c4)ccc32)cc(OC)c1C(=O)N1CC(OC)C1	10 to 100 nM
COc1cc(-n2cnc3cc(-c4cnn(C)c4)ccc32)cc(OC)c1C(=O)N1CCC(c2ccccc2)C1 (centres unmarked)	> 500 nM
COc1cc(-n2cnc3cc(-c4cnn(C)c4)ccc32)cc(OC)c1C(=O)Nc1cnn(C)c1	100 to 500 nM

## Input Would you kindly share the measured IC50 for COc1cc(-c2cnc3cc(-c4cnn(C)c4)ccn23)cc(OC)c1C(=O)N[C@H]1C[C@@H]1C(F)F ?
## Output 10 to 100 nM

## Input Field request: IC50 | item: CCN1Cc2cc(-n3cnc4cc(-c5cnn(C)c5)ccc43)cc(F)c2C1=O
## Output > 500 nM

## Input // query IC50 value for entry CCn1cc(-c2cnc3c(-c4cc(OC)c(C(=O)NCC(F)F)c(OC)c4)cnn3c2)cn1
## Output 10 to 100 nM

----------
Reported pIC50 by item:
- targetOrSystem: SIK2 (Homo sapiens)
- Construct: purchased ThermoFisher Scientific PV4792
- Sequence (Q9H0K1 whole entry): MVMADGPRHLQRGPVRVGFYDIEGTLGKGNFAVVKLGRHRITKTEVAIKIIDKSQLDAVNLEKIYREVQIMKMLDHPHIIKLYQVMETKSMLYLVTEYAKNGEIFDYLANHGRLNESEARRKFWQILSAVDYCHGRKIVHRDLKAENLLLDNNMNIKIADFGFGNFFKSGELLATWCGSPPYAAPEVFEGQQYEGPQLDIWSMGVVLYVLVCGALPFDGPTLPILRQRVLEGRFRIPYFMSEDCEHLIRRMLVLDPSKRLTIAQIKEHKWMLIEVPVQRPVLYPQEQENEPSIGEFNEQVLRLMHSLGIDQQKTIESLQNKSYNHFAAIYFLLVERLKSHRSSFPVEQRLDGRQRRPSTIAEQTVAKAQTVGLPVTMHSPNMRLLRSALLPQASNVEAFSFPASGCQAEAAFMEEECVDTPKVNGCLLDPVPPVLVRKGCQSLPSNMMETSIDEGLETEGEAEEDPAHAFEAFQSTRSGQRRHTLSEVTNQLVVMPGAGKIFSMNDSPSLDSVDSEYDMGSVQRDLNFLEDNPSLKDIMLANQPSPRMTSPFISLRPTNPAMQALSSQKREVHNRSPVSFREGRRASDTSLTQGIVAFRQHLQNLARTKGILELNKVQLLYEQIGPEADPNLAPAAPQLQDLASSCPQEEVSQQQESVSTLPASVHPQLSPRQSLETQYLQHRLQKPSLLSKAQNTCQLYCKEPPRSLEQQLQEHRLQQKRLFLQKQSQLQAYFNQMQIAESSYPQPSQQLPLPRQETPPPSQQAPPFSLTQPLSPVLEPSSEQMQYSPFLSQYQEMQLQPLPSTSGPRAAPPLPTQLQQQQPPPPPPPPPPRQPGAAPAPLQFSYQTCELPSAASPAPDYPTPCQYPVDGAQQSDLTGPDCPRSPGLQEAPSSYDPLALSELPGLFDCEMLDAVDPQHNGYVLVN
- measurementNotes: biochemical
- conditions: 33P radioactive SIK kinase assay, AMARA peptide, 10 μM ATP
pIC50: −log10 of the molar value.

# annotated cases, reported pIC50 shown
structure	targetOrSystem	metric	testValue
COc1cc(-n2cnc3cc(-c4cnn(C)c4)ccc32)cc(OC)c1C(=O)NCCF	SIK2 (Homo sapiens)	pIC50	8.00 to 11.00
COc1cc(-n2cnc3cc(-c4cnn(C)c4)ccc32)cc(OC)c1C(=O)N[C@H](C)C(F)(F)F	SIK2 (Homo sapiens)	pIC50	7.00 to 8.00
COc1cc(-c2cnn3cc(-c4cnn(C)c4)ccc23)cc(OC)c1C(=O)NCC(F)(F)F	SIK2 (Homo sapiens)	pIC50	8.00 to 11.00
COc1ccc(-c2ccn3c(-c4cc(OC)c(C(=O)NCC(F)(F)F)c(OC)c4)cnc3c2)cn1	SIK2 (Homo sapiens)	pIC50	8.00 to 11.00
COc1cc(-n2cnc3cc(-c4cnn(C)c4)ccc32)cc(OC)c1C(=O)N1CC(C)(O)C1	SIK2 (Homo sapiens)	pIC50	7.00 to 8.00
COc1cc(-n2cnc3cc(-c4cnn(C)c4)ccc32)cc(OC)c1C(=O)N1CCC(F)CC1	SIK2 (Homo sapiens)	pIC50	< 6.30

## Input Write down the reported pIC50 of COc1cc(-c2cnc3cc(-c4cnn(C)c4)ccn23)cc(OC)c1C(=O)N1CCC(F)(F)C1 , test system: SIK2 (Homo sapiens).
## Output 7.00 to 8.00

## Input # query: pIC50 | item COc1cc(-n2cnc3cc(-c4cnn(C)c4)ccc32)cc(OC)c1C(=O)N[C@@H]1CCC[C@H]1O | system: SIK2 (Homo sapiens)
## Output 7.00 to 8.00

Hey, just so you know, these numbers are from patent US12065443B2.
